- STUDY_SYSTEM: recombinant human CK2 (Homo sapiens)
- Sequence (P68400 whole entry): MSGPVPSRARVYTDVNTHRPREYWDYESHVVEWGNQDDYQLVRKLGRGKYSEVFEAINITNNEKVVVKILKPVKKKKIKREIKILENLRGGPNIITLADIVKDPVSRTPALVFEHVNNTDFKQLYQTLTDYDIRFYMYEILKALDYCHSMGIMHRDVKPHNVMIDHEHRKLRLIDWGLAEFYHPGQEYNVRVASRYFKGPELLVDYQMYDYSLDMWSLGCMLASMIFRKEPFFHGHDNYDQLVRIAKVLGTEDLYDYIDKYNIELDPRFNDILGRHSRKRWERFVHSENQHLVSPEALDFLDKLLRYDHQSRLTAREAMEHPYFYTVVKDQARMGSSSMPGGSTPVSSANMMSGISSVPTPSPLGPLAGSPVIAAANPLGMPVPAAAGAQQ
- Sequence (P67870 whole entry partner): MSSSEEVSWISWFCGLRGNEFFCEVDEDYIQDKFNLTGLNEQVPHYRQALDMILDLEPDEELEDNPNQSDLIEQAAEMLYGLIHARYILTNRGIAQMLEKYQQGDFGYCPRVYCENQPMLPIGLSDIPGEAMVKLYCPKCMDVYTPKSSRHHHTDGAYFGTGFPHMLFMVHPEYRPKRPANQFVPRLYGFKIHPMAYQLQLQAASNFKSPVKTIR
- EXPERIMENT: CK2 kinase assay (33P-ATP, substrate peptide RRRDDDSDDD)
- MEASUREMENT_CONTEXT: final ATP concentration 15 μM, 10 min at 30° C; read-out: IC50, protein kinase CK2 activity
- Method: CK2 Kinase Assay was conducted using the protocol as described in Pierre F. et al; J. Med. Chem. 2011, 54, 635-654. […] After washing each well five times with 0.75% phosphoric acid, the plate was dried under vacuum for 5 min and, following the addition of 15 μL of scintillation fluid to each well, the residual radioactivity was measured using a Wallac luminescence counter. […]

# SMILES, STUDY_SYSTEM, UNIT_SPEC, IC50
records = [
    ("O=C(O)c1ccc2c(c1)cc1nc(Nc3cccc(Cl)c3)c3ccncc3n12", "recombinant human CK2 (Homo sapiens)", "nM", 15),
]
